Target: human p38 kinase alpha (Homo sapiens, UniProt Q16539)
Construct: The coding region of the human p38α cDNA was obtained by PCR-amplification from RNA isolated from the human monocyte cell line THP.1; made in house; host or cells: E. coli DH10B
Sequence (Q16539 whole entry): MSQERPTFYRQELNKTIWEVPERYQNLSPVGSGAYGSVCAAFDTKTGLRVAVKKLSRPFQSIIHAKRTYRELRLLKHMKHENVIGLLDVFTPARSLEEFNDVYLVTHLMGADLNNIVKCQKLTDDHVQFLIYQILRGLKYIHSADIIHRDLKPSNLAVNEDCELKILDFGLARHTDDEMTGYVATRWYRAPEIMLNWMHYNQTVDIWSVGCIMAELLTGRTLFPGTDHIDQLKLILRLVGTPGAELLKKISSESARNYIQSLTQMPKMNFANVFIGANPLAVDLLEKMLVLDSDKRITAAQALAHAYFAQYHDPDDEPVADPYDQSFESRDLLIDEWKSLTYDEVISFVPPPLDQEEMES
Assay: In vitro p38 kinase inhibition analysis (PHAS-I 32P-ATP or EGFRP 33P-ATP format)
Format: biochemical
Details: Table 2; additional pyrazole compounds, Examples 56-169; read-out: p38α Kinase Inhibition (IC50 in μM)
Protocol: The ability of compounds to inhibit human p38 kinase alpha was evaluated using one of two in vitro assay methods. […] Following incubation, 20 μl of reaction mixture was transferred to a high capacity streptavidin coated filter plate (SAM-streptavidin-matrix, Promega) prewetted with phosphate buffered saline. […] The plates were sealed and counted. […]
RESULT_TYPE: IC50 (µM)

Known IC50 results, listed for orientation:
O=C(CO)N1CCC(c2[nH]nc(-c3ccc(F)cc3F)c2-c2ccncn2)CC1 = 0.248
N#Cc1cccc(Oc2nccc(-c3c(-c4ccc(Cl)cc4)n[nH]c3C3CCN(C(=O)CO)CC3)n2)c1 = 0.0697
O=C(CO)N1CCC(c2[nH]nc(-c3cc(Cl)ccc3F)c2-c2ccncn2)CC1 = 0.247
CN(C)CCOc1nccc(-c2c(-c3ccc(Cl)cc3)n[nH]c2C2CCN(C(=O)CO)CC2)n1 = 0.377
CC(=O)OCC(=O)N1CCC(c2[nH]nc(-c3ccc(Cl)cc3)c2-c2ccnc(S(C)(=O)=O)n2)CC1 = 3.31
CC(C)(C)OC(=O)N1CCC(c2[nH]nc(-c3ccc(Cl)cc3)c2-c2ccnc(OC3CCCC3)n2)CC1 = 1.68
O=C(CO)N1CCC(c2[nH]nc(-c3ccc(F)c(F)c3)c2-c2ccncn2)CC1 = 0.753
C[C@H](O)C(=O)N1CCC(c2[nH]nc(-c3cccc(Cl)c3F)c2-c2ccncn2)CC1 = 0.379
O=C(CO)N1CCC(c2[nH]nc(-c3ccc(Cl)cc3)c2-c2ccnc(O[C@@H]3CCOC3)n2)CC1 = 0.34
N#Cc1ccc(Oc2nccc(-c3c(-c4ccc(Cl)cc4)n[nH]c3C3CCN(C(=O)CO)CC3)n2)cc1 = 0.108

[a] CN1CCC(c2[nH]nc(-c3ccc(Cl)cc3F)c2-c2ccnc(NC3CCCC3)n2)CC1 [Example 168]
[b] O=C([C@H](O)CO)N1CCC(c2[nH]nc(-c3ccc(Cl)cc3)c2-c2ccncn2)CC1
Q: Looking at a and b , which one comes out lower in IC50 terms? Let me know the label of the one you choose.
Ans: b
(b: 0.416 µM, a: 1 µM)

* * *

Target: human p38 kinase alpha (Homo sapiens)
Construct: The coding region of the human p38α cDNA was obtained by PCR-amplification from RNA isolated from the human monocyte cell line THP.1; made in house; host or cells: E. coli DH10B
Experiment: In vitro p38 kinase inhibition analysis (PHAS-I 32P-ATP or EGFRP 33P-ATP format)
Assay type: biochemical
Conditions: Table 1; compounds of Examples 1-28; one of two in vitro assay methods; Hydrochloride Hydrate; read-out: p38α Kinase Inhibition (IC50 in μM)
Where a name gives a salt, the structure may show the parent alone.
RESULT_TYPE: IC50 (µM)

CN(CCO)[C@H]1CC[C@H](c2[nH]nc(-c3ccc(Cl)cc3)c2-c2ccncn2)CC1 [Example 12, Hydrochloride Hydrate] = 0.0379

[I] OC[C@H]1CCCN1[C@H]1CC[C@H](c2[nH]nc(-c3ccc(Cl)cc3)c2-c2ccncn2)CC1 [Example 10, Hydrochloride Hydrate]
[II] Clc1ccc(-c2n[nH]c([C@H]3CC[C@H](N4CCCCC4)CC3)c2-c2ccncn2)cc1 [Example 8, Hydrochloride Hydrate]
Q: Would you let me know which has the greater IC50 value, I or II ? Let me know the label of the one you choose.
Ans: II

* * *

Target: human p38 kinase alpha (Homo sapiens)
Construct: The coding region of the human p38α cDNA was obtained by PCR-amplification from RNA isolated from the human monocyte cell line THP.1; made in house; host or cells: E. coli DH10B
Assay: In vitro p38 kinase inhibition analysis (PHAS-I 32P-ATP or EGFRP 33P-ATP format)
Assay type: biochemical
Settings: Table 1; compounds of Examples 1-28; one of two in vitro assay methods; Trifluoroacetate; read-out: p38α Kinase Inhibition (IC50 in μM)
Where a name gives a salt, the structure may show the parent alone.
RESULT_TYPE: IC50 (µM)

Clc1ccc(-c2n[nH]c([C@H]3CC[C@H](N4CCCCC4)CC3)c2-c2ccncn2)cc1 [Example 7, Trifluoroacetate] = 0.0238
OC[C@H]1CCCN1[C@H]1CC[C@H](c2[nH]nc(-c3ccc(Cl)cc3)c2-c2ccncn2)CC1 [Example 9, Trifluoroacetate] = 0.0285

* * *

Biological target: human p38 kinase alpha (Homo sapiens, UniProt Q16539)
Construct: The coding region of the human p38α cDNA was obtained by PCR-amplification from RNA isolated from the human monocyte cell line THP.1; made in house; host or cells: E. coli DH10B
Test: In vitro p38 kinase inhibition analysis (PHAS-I 32P-ATP or EGFRP 33P-ATP format)
Format: biochemical
Conditions: Table 2; additional pyrazole compounds, Examples 56-169; read-out: p38α Kinase Inhibition (IC50 in μM)
RESULT_TYPE: IC50 (µM)

O=C(CO)N1CCC(c2[nH]nc(-c3ccc(Cl)cc3)c2-c2ccnc(NC3CCN(Cc4ccccc4)CC3)n2)CC1 = 0.053

[I] COc1ccc(-c2n[nH]c(C3CCN(C(=O)CO)CC3)c2-c2ccncn2)cc1Cl
[II] CN(C)CCNc1nccc(-c2c(-c3cccc(Cl)c3)n[nH]c2C2CCN(C(=O)OC(C)(C)C)CC2)n1
[III] CC(C)(C)OC(=O)N1CCC(c2[nH]nc(-c3ccc(Cl)cc3)c2-c2ccnc(NC3CCCC3)n2)CC1
Q: Arrange the 3 entries by IC50 so the values rise. Could you list the labels in the order requested?
Ans: III, I, II
(III: 0.01 µM, I: 1.2 µM, II: 4.1 µM)

[A] COc1ccc(-c2n[nH]c(C3CCN(C(=O)CO)CC3)c2-c2ccncn2)cc1
[B] CN(C)CCNc1nccc(-c2c(-c3ccc(Cl)cc3F)n[nH]c2C2CCNCC2)n1
Q: Looking at A and B , which one comes out lower in IC50 terms? Let me know the label of the one you choose.
Ans: B

* * *

Target: human p38 kinase alpha (Homo sapiens)
Construct: The coding region of the human p38α cDNA was obtained by PCR-amplification from RNA isolated from the human monocyte cell line THP.1; made in house; host or cells: E. coli DH10B
Assay: In vitro p38 kinase inhibition analysis (PHAS-I 32P-ATP or EGFRP 33P-ATP format)
Format: biochemical
Conditions: Table 1; compounds of Examples 1-28; one of two in vitro assay methods; read-out: p38α Kinase Inhibition (IC50 in μM)
Where a name gives a salt, the structure may show the parent alone.
RESULT_TYPE: IC50 (µM)

Known IC50 results, listed for orientation:
Fc1cc(Cl)ccc1-c1n[nH]c(C2CCNCC2)c1-c1ccncn1 = 0.0641
CC(c1ccc(C(C)(C)O)cc1)N1CCC(c2[nH]nc(-c3ccc(Cl)cc3)c2-c2ccncn2)CC1 (stereo not drawn) = 0.0106
Clc1ccc(-c2n[nH]c([C@H]3CC[C@H](NC4CCCCC4)CC3)c2-c2ccncn2)cc1 [Example 3] = 0.0452
C[C@@H](N[C@H]1CC[C@H](c2[nH]nc(-c3ccc(Cl)cc3)c2-c2ccncn2)CC1)c1ccccc1 = 0.0314
CC(C)(O)[C@H]1CC[C@H](c2[nH]nc(-c3ccc(Cl)cc3)c2-c2ccncn2)CC1 = 0.0926
CC(C)N[C@H]1CC[C@H](c2[nH]nc(-c3ccc(F)c(F)c3)c2-c2ccncn2)CC1 = 0.115
Clc1ccc(-c2n[nH]c([C@H]3CC[C@H](NC4CCCCC4)CC3)c2-c2ccncn2)cc1 [Example 4] = 0.0379
O[C@H]1CC[C@H](c2[nH]nc(-c3ccc(Cl)cc3)c2-c2ccncn2)CC1 = 0.289

[a] O=C(CO)N1CCC(c2[nH]nc(-c3ccc(Cl)cc3F)c2-c2ccncn2)CC1
[b] Fc1ccc(CN2CCC(c3[nH]nc(-c4ccc(Cl)cc4)c3-c3ccncn3)CC2)cc1
Q: Would you let me know which has the greater IC50 value, a or b ? Let me know the label of the one you choose.
Ans: a

[P] OC1CCCC1N1CCC(c2[nH]nc(-c3ccc(Cl)cc3)c2-c2ccncn2)CC1 (stereo not drawn) [Example 17, Fumarate]
[Q] CC(C)N[C@H]1CC[C@H](c2[nH]nc(-c3ccc(F)c(C(F)(F)F)c3)c2-c2ccncn2)CC1
Q: Would you let me know which has the greater IC50 value, P or Q ? Let me know the label of the one you choose.
Ans: Q
(Q: 0.0723 µM, P: 0.0189 µM)

* * *

Target: human p38 kinase alpha (Homo sapiens, UniProt Q16539)
Construct: The coding region of the human p38α cDNA was obtained by PCR-amplification from RNA isolated from the human monocyte cell line THP.1; made in house; host or cells: E. coli DH10B
Assay: In vitro p38 kinase inhibition analysis (PHAS-I 32P-ATP or EGFRP 33P-ATP format)
Type: biochemical
Details: Table 2; additional pyrazole compounds, Examples 56-169; read-out: p38α Kinase Inhibition (IC50 in μM)
RESULT_TYPE: IC50 (µM)

[1] Fc1ccc(-c2n[nH]c(C3CCNCC3)c2-c2ccnc(NC3CCCC3)n2)cc1C(F)(F)F
[2] C[C@H](O)[C@@H](O)C(=O)N1CCC(c2[nH]nc(-c3ccc(Cl)cc3)c2-c2ccncn2)CC1
[3] CC(C)(C)OC(=O)N1CCC(c2[nH]nc(-c3ccc(Cl)cc3)c2-c2ccnc(OCCN3CCOCC3)n2)CC1
[4] Clc1ccc(-c2n[nH]c(C3CCNCC3)c2-c2ccnc(NC3CCCC3)n2)cc1
[5] CN(C)CCNc1nccc(-c2c(-c3ccc(F)c(C(F)(F)F)c3)n[nH]c2C2CCNCC2)n1
Q: Take the compounds listed above and rank them by IC50; the top slot goes to the highest value. Could you list the labels in the order requested?
Ans: 3, 2, 5, 1, 4
(3: 16.9 µM, 2: 0.596 µM, 5: 0.261 µM, 1: 0.0225 µM, 4: 0.01 µM)

[P] CC(C)(C)OC(=O)N1CCC(c2[nH]nc(-c3ccc(Cl)cc3)c2-c2ccnc(O[C@@H]3CCOC3)n2)CC1
[Q] O=C(CO)N1CCC(c2[nH]nc(-c3cccc(C(F)(F)F)c3F)c2-c2ccncn2)CC1
[R] COCCOCC(=O)N1CCC(c2[nH]nc(-c3ccc(Cl)cc3)c2-c2ccncn2)CC1
Q: Arrange the 3 entries by IC50 so the values rise. Could you list the labels in the order requested?
Ans: R, P, Q

[I] O=C(CO)N1CCC(c2[nH]nc(-c3cc(F)cc(Cl)c3)c2-c2ccncn2)CC1
[II] O=C(CO)N1CCC(c2[nH]nc(-c3cc(Cl)cc(Cl)c3)c2-c2ccncn2)CC1
[III] CN(C)CCOc1nccc(-c2c(-c3cccc(Cl)c3)n[nH]c2C2CCNCC2)n1
[IV] O=C([C@@H](O)CO)N1CCC(c2[nH]nc(-c3ccc(Cl)cc3)c2-c2ccncn2)CC1
Q: Arrange these compounds by their IC50, starting with the largest number. Could you list the labels in the order requested?
Ans: II, I, IV, III
(II: 3.39 µM, I: 1.1 µM, IV: 0.256 µM, III: 0.162 µM)

[1] COc1cccc(-c2n[nH]c(C3CCN(C(=O)CO)CC3)c2-c2ccncn2)c1
[2] O=C(CO)N1CCC(c2[nH]nc(-c3ccc(F)c(Cl)c3)c2-c2ccncn2)CC1
Q: Looking at 1 and 2 , which one comes out lower in IC50 terms? Let me know the label of the one you choose.
Ans: 2
(2: 0.147 µM, 1: 2.1 µM)
